experiment-summary: Half life in iv dosed dog
Type: ADME, organism-based, Canis lupus familiaris
test-parameters: in vivo
experimental-readout: half-life (h)

[[record]]
smiles_string = "Nc1nc(CC(=O)Nc2ccc(C[C@@H]3CC[C@H]([C@H](O)c4ccccc4)N3)cc2)cs1"
recorded_value = 8.3


----------
Reported half-life values are given for each entry in this list.
experiment-summary: Half life in iv dosed rat
Assay type: ADME, organism-based
test-parameters: in vivo
experimental-readout: half-life (h)

[[record]]
smiles_string = "Nc1nc(CC(=O)Nc2ccc(C[C@@H]3CC[C@H]([C@H](O)c4ccccc4)N3)cc2)cs1"
experimental_readout = "half-life"
recorded_value = 7.7

[[record]]
smiles_string = "O=S(=O)(Nc1ccc(CCNC[C@H](O)c2cccnc2)cc1)c1ccc(-c2nc(-c3ccc(C(F)(F)F)cc3)cs2)cc1"
experimental_readout = "half-life"
recorded_value = 8.1


----------
system-tested: Beta-2 adrenergic receptor (Homo sapiens, UniProt P07550)
Sequence (P07550 whole entry): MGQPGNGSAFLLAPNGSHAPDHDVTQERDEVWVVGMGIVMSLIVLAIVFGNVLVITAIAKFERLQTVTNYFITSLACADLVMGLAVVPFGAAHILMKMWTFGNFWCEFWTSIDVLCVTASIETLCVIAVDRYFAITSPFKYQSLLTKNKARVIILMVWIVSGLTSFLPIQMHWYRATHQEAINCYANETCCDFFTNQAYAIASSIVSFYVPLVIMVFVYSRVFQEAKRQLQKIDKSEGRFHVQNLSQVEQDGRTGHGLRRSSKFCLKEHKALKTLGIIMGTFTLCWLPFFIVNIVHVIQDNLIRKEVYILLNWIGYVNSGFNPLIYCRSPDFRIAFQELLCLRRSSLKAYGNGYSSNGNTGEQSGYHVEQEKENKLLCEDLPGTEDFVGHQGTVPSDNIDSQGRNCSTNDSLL
experiment-summary: Agonist activity at human beta2 adrenergic receptor
Type: functional
experimental-readout: IC50

[[record]]
compound = "O=S(=O)(Nc1ccc(C[C@@H]2CC[C@H]([C@H](O)c3ccccc3)N2)cc1)c1ccc(-c2nc(-c3ccc(C(F)(F)F)cc3)cs2)cc1"
experimental_readout = "IC50"
recorded_value = "2510 nM"

[[record]]
compound = "O=S(=O)(Nc1ccc(CCNC[C@H](O)c2ccccc2)cc1)c1ccc(-c2nc(-c3ccc(C(F)(F)F)cc3)cs2)cc1"
experimental_readout = "IC50"
recorded_value = "780 nM"

[[record]]
compound = "Nc1nc(CC(=O)Nc2ccc(C[C@@H]3CC[C@H]([C@H](O)c4ccccc4)N3)cc2)cs1"
experimental_readout = "IC50"
recorded_value = "> 20000 nM"

[[record]]
compound = "O=S(=O)(Nc1ccc(CC2CC[C@@H]([C@H](O)c3ccccc3)N2)cc1)c1ccc(-c2nc(-c3ccc(C(F)(F)F)cc3)cs2)cc1 (mixture of isomers)"
experimental_readout = "IC50"
recorded_value = "3530 nM"

[[record]]
compound = "O=S(=O)(Nc1ccc(CC2CC[C@H]([C@H](O)c3ccccc3)N2)cc1)c1ccc(-c2nc(-c3ccc(C(F)(F)F)cc3)cs2)cc1 (mixture of isomers)"
experimental_readout = "IC50"
recorded_value = "2180 nM"


----------
experiment-summary: Metabolic stability in rat liver microsomes assessed as compound remaining after 45 mins
Type: ADME, Microsome
test-parameters: read-out: Stability
experimental-readout: remaining at 0.75 h

[[record]]
smiles_string = "Nc1nc(CC(=O)Nc2ccc(C[C@@H]3CC[C@H]([C@H](O)c4ccccc4)N3)cc2)cs1"
recorded_value = "13%"


----------
Reported IC50 values are given for each entry in this list.
system-tested: Beta-2 adrenergic receptor (Homo sapiens, UniProt P07550)
experiment-summary: Agonist activity at human beta2 adrenergic receptor
Format: functional
experimental-readout: IC50

[[record]]
molecule = "O=S(=O)(Nc1ccc(C[C@H]2CC[C@H]([C@H](O)c3ccccc3)N2)cc1)c1ccc(-c2nc(-c3ccc(C(F)(F)F)cc3)cs2)cc1"
experimental_readout = "IC50"
recorded_value = "297 nM"

[[record]]
molecule = "O=S(=O)(Nc1ccc(CC2CC[C@@H]([C@@H](O)c3ccccc3)N2)cc1)c1ccc(-c2nc(-c3ccc(C(F)(F)F)cc3)cs2)cc1 (mixture of isomers)"
experimental_readout = "IC50"
recorded_value = "3530 nM"

[[record]]
molecule = "O=S(=O)(Nc1ccc(CC2CC[C@H]([C@@H](O)c3ccccc3)N2)cc1)c1ccc(-c2nc(-c3ccc(C(F)(F)F)cc3)cs2)cc1 (mixture of isomers)"
experimental_readout = "IC50"
recorded_value = "2790 nM"

